# key: entry, value: binding intensity score (0-4)
target: T1, recombinant human integrin αvβ6 (human, UniProt P18564 22-707); experiment: ELISA: integrin coated on plate, supernatant of transfected 293 cells at 1/10 dilution, anti-mouse IgG-HRP; score normalized to expression;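 further: scale runs from 0 (no apparent binding) to 4 (robust binding), with scores adjusted for clone protein expression as determined by a murine IgG ELISA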
T1 construct: also called αvβ6 (R&D systems); αvβ6 receptor
T1 sequence (chain, as listed by the source limits assumed, chain 1 of 2): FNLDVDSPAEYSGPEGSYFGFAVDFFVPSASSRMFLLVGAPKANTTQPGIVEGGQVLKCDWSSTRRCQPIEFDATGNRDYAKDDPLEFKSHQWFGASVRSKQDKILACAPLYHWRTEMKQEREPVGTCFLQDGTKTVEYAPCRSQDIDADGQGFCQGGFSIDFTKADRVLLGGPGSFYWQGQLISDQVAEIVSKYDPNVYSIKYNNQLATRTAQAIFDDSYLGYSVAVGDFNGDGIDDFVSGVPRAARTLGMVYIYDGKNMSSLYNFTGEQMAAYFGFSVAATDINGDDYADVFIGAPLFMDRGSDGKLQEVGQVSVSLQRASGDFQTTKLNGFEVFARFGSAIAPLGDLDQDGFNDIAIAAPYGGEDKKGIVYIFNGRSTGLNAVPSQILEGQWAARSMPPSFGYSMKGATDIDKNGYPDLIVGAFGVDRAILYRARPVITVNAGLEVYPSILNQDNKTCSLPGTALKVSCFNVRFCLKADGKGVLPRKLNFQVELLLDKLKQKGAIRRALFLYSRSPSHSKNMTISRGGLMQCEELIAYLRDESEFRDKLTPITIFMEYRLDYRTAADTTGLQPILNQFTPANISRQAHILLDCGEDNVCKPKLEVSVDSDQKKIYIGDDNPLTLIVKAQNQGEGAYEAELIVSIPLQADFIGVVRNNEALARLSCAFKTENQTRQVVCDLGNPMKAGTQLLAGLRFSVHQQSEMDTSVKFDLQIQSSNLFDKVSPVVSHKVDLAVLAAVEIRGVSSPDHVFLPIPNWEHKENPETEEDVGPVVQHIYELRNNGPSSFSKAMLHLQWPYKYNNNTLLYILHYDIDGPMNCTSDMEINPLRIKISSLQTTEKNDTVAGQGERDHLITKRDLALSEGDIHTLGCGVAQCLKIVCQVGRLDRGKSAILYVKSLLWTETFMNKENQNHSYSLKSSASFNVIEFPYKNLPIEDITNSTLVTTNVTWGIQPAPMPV
T1 sequence (P18564 22-707 limits assumed, chain 2 of 2): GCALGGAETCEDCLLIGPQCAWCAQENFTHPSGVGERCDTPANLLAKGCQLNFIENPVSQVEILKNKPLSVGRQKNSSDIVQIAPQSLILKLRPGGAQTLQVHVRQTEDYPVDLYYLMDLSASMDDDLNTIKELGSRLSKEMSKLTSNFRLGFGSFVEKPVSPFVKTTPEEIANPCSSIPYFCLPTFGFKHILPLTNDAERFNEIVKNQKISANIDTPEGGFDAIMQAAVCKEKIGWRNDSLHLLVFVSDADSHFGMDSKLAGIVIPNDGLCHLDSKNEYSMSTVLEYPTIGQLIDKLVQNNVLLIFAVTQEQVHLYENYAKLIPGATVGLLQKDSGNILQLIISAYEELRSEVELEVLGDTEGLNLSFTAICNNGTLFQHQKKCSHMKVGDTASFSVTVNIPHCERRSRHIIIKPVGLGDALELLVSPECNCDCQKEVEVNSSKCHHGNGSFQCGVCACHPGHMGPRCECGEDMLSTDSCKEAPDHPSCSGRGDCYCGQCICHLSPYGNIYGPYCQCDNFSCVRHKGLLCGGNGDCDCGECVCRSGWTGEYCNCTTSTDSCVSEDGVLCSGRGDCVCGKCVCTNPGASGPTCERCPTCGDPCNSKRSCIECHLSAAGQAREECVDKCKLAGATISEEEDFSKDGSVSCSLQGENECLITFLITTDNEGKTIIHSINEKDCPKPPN

| Binder | Result |
| --- | --- |
| C6 VH / RGD3-12 Vk murine IgG (antibody, V domains shown, Murine IgG, supernatant of 293 cells; CDRL1 swap into the C6D4 murine IgG vector, VH not altered; also called C6RGD3-12) VH: QIQLLQSGPELKKPGETVKISCKASGYTFTDYSMHWVKQAPGKGLKWVARINTETGEPTFADDFRGRFAVSLETSASTAYLQINNLKNEDTATYFCAIFYYGRDSWGQGTTLTVSS VL: DIVMTQSPSSLAVSAGEKVTMSCKSSQSLLGRGDLGRLKKQKWYQQKPGQSPRLLIYWASTRESGVPDRFTGSGSGTDFTLTISSVQAEDLAVYYCKQSYNLLSFGAGTKLELKR | 2 score 0-4 |

Kindly consider the entry below.
Record C6 VH / RGD3-3 Vk murine IgG (antibody, V domains shown, Murine IgG, supernatant of 293 cells; CDRL1 swap into the C6D4 murine IgG vector, VH not altered; also called C6RGD3-3) VH: QIQLLQSGPELKKPGETVKISCKASGYTFTDYSMHWVKQAPGKGLKWVARINTETGEPTFADDFRGRFAVSLETSASTAYLQINNLKNEDTATYFCAIFYYGRDSWGQGTTLTVSS VL: DIVMTQSPSSLAVSAGEKVTMSCKSSQSLLGRGDLGRLKKQKNALAWYQQKPGQSPRLLIYWASTRESGVPDRFTGSGSGTDFTLTISSVQAEDLAVYYCKQSYNLLSFGAGTKLELKR . Reported binding intensity score (0-4): 4 score 0-4

Hey, just so you know, these numbers are from patent US20210230279A1.
